Each recorded value in this set is attributed to patent US20090054398A1.

Counter-ions that a name gives are not always drawn.
Outcome measure: melting point

[[record]]
compound = "CC(C)[C@H](NC(=O)Cc1cc(F)cc(F)c1)C(=O)N[C@@H]1C(=O)Nc2ccccc2S[C@@H]1c1ccccc1"
result = "110 to 115 °C"

[[record]]
compound = "C[C@H](NCCc1ccccc1)C(=O)N[C@@H]1C(=O)Nc2ccccc2S[C@@H]1c1ccccc1 (as salt: hydrochloride)"
result = "184 to 195 °C"

[[record]]
compound = "C[C@H](NC(=O)Cc1ccc(F)cc1)C(=O)N[C@@H]1C(=O)Nc2ccccc2O[C@@H]1c1ccccc1"
result = "130 to 140 °C"

[[record]]
compound = "C[C@H](NC(=O)Cc1cc(F)cc(F)c1)C(=O)N[C@@H]1C(=O)Nc2ccccc2S[C@@H]1c1cccs1"
result = "117 to 119 °C"

[[record]]
compound = "C[C@H](NC(=O)Cc1ccccc1)C(=O)N[C@@H]1C(=O)Nc2ccccc2S[C@@H]1c1ccccc1"
result = "114 to 124 °C"

